- Test system: A549 cells
- method-summary: 24 h IC50
- Type: cell-based
- stated-conditions: read-out: 24 h IC50 value, Table S1
quantity-kind: pIC50
One number for each entry, as −log10 of the molar value.

Give the measured pIC50 of O=C1[O][Pt]2([NH][C@@H]3CCCC[C@H]3[NH]2)[O]C1=O [compound 2, oxaliplatin, reference compound] . 4.09
